test system: human umbilical vein endothelial cells (HUVEC); test: HUVEC proliferation quantified by BrdU incorporation; assay type: cell-based; conditions: HUVEC, reference compounds run in every assay, expected value, read-out: expected value (EC50) of reference compound
measure: pEC50
Answers are plain numbers, as −log10 of the molar value.

Looking up CO[C@@H]1[C@H](OC(=O)NC(=O)CCl)CC[C@]2(CO2)[C@H]1[C@@]1(C)O[C@@H]1CC=C(C)C [MSC1902850A, TNP-470, reference compound] , I see its pEC50 listed as 9.10

----------
test system: human umbilical vein endothelial cells (HUVEC); assay: HUVEC proliferation quantified by BrdU incorporation; format: cell-based; conditions: HUVEC proliferation, BrdU incorporation, read-out: IC50 HUVEC
measure: pIC50
Numbers only, as −log10 of the molar value.

Lookup result for O=C(NCc1cc(F)cc(Cl)c1)C1=CCN(c2ccccc2)C1=O [Compound A12] ; measured pIC50: 5.48
